# Tested on: Penicillium sp. (laboratory isolate)
# test description: Fungal growth on SABHI agar containing CMT (Example 38)
# Format: cell-based
# run conditions: 25 μg/ml, 24 hrs, 30° C., growth grade
Provide the recorded Growth at 25 μg/ml compared to control at 24 hrs incubation for the entries that follow.

Check out these entries, answers already filled in.
- compound: "O=C(NCN1CCNCC1)C1=C(O)CC2CC3Cc4cccc(O)c4C(=O)C3=C(O)C2(O)C1=O (stereo not drawn)"
  reported: "0 (complete inhibition of growth.)"
- compound: "CC(=O)Nc1cc(N(C)C)c2c(c1O)C(=O)C1=C(O)C3(O)C(=O)C(C(N)=O)=C(O)CC3CC1C2.O=S(=O)(O)O (stereo not drawn)"
  reported: "0 (complete inhibition of growth.)"

Here is another compound to look at.
Input line: Return reported Growth at 25 μg/ml compared to control at 24 hrs incubation; argument: NC(=O)C1=C(O)CC2CC3Cc4ccc(N)c(O)c4C(=O)C3=C(O)C2(O)C1=O (stereo not drawn)
Output line: 0 (complete inhibition of growth.)

====

Exercise: for every item that follows, state its recorded Growth at 25 μg/ml compared to control at 24 hrs incubation.
# Tested on: Aspergillus fumigatus ATCC 1022
# test description: Fungal growth on SABHI agar containing CMT (Example 38)
# Assay type: cell-based
# run conditions: 25 μg/ml, 24 hrs, 30° C., growth grade

Consider the worked cases shown below.
- compound: "CN(C)c1cc([N+]#N)c(O)c2c1CC1CC3CC(O)=C(C(N)=O)C(=O)C3(O)C(O)=C1C2=O.O=S(=O)([O-])O (stereo not drawn)"
  reported: "0 (complete inhibition of growth.)"
- compound: "NC(=O)C1=C(O)CC2CC3Cc4c([N+](=O)[O-])ccc(O)c4C(=O)C3=C(O)C2(O)C1=O (stereo not drawn)"
  reported: "0 (complete inhibition of growth.)"
- compound: "O=C(NCN1CCNCC1)C1=C(O)CC2CC3Cc4cccc(O)c4C(=O)C3=C(O)C2(O)C1=O (stereo not drawn)"
  reported: "0 (complete inhibition of growth.)"
- compound: "CC(=O)Nc1cc(N(C)C)c2c(c1O)C(=O)C1=C(O)C3(O)C(=O)C(C(N)=O)=C(O)CC3CC1C2.O=S(=O)(O)O (stereo not drawn)"
  reported: "0 (complete inhibition of growth.)"

Input line: // lookup Growth at 25 μg/ml compared to control at 24 hrs incubation for NC(=O)C1=C(O)CC2CC3Cc4ccc(N)c(O)c4C(=O)C3=C(O)C2(O)C1=O (stereo not drawn)
Output line: 0 (complete inhibition of growth.)

====

# System: Candida albicans, ATCC 14053
# test description: Fungal growth on SABHI agar containing CMT (Example 38)
# Type: cell-based
# run conditions: 25 μg/ml, 24 hrs, 30° C., growth grade
experimental readout: Growth at 25 μg/ml compared to control at 24 hrs incubation

Input line: Missing value: Growth at 25 μg/ml compared to control at 24 hrs incubation, Candida albicans, ATCC 14053, entry O=C(NCN1CCNCC1)C1=C(O)CC2CC3Cc4cccc(O)c4C(=O)C3=C(O)C2(O)C1=O (centres unmarked) . Fill in?
Output line: 0 (complete inhibition of growth.)

Ref: patent US20050153943A1
